These data points were gathered from ChEMBL document CHEMBL1201862.

Tested on: OVCAR-8
Experiment: NCI tumour cell line growth inhibition, 48 h
Activity calls are given as the source filed them. No stated cut-off is given here; in the data, active = GI50 up to about 1.1 µM and inactive = higher.
Pick one: y = active, n = inactive

- molecule: "COc1ccccc1NCC(=O)Nn1c(C)nc2ccc(S(=O)(=O)Nc3ccccc3OC)cc2c1=O"
  classification: "n"
- molecule: "CCOC(=O)N1CCc2cc(OC)c(OC)c3c2C1CC3=O (stereo not given)"
  classification: "n"
- molecule: "Sc1nn2c(Cc3ccccc3)nnc2s1"
  classification: "n"
- molecule: "COC(=O)c1c[nH]c2c1-c1cc(C(=O)OCc3ccccc3)n(S(=O)(=O)c3ccc(C)cc3)c1C(=O)C2=O"
  classification: "y"
- molecule: "CC(=O)OCC1OC(n2c3c(cc(C#N)c2=S)CCCCCC3)C(OC(C)=O)C(OC(C)=O)C1OC(C)=O (stereo not given)"
  classification: "n"

Check the results log: what was the call for Clc1ccc2c(NCCNc3ccnc4cc(Cl)ccc34)ccnc2c1 ?
n
